system: OVCAR-3 ovarian; experiment: NCI tumour cell line growth inhibition, 48 h
Would you mind labelling by TGI? At or over 20 µM is 1, under is -1.

Sample answers from the record:
>>> assigned_label("O=C(CC(=O)C1CCOC1=O)C(=O)Nc1cccc(Cl)c1 (stereo not given)")
1
>>> assigned_label("O=C1NCCS(=O)(=O)N[C@@H](CC2=CC=CCC2)C(=O)N2CCCC12 (stereo not given in full)")
1
>>> assigned_label("COC(=O)c1cc2c(o1)-c1nccc3c1c(nc1ccccc13)C2=O")
-1

Could you now look at the following compound, please?
API: above_or_equal(metric=TGI, cutoff=20 µM) for item Cc1cc(-c2nc3ccccc3s2)ccc1NC(=O)[C@@H](N)CCCCN
1
